Some compounds, each annotated with its measured IC90.
- System: M. tuberculosis H37Rv growth inhibition
- assay_procedure: Mycobacterium tuberculosis H37Rv growth inhibition, putative kinase inhibitor library, confirmatory dose response (AID 2842);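 note: bacteria incubated one week before Alamar blue readout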

Determine its reported IC90: Cc1ccc(-c2csc(Nc3nc4cc5c(cc4s3)OCO5)n2)o1
26.6 µg/mL

Determine its reported IC90: Cc1ccc(C)c2sc(N(CCCn3ccnc3)C(=O)c3ccc(F)cc3)nc12
4.35 µg/mL

Determine its reported IC90: COc1ccc(-c2nsc(SCC(=O)NCc3ccco3)n2)cc1
< 0.2 µg/mL

Determine its reported IC90: CCN(CC)S(=O)(=O)c1ccc(C(=O)Nc2nnc(-c3cc(C)ccc3C)o2)cc1
13.1 µg/mL

Determine its reported IC90: COc1cccc2sc(Nc3nnc(-c4cccs4)o3)nc12
3.36 µg/mL

Determine its reported IC90: CCOc1cc(-c2nnc(NC(=O)C(C)C)o2)cc(OCC)c1OCC
9.11 µg/mL

Determine its reported IC90: COc1cc2c(=O)c(C(=O)c3ccc(Cl)cc3)cn(Cc3ccccc3F)c2cc1OC
45 µg/mL

Determine its reported IC90: O=C(Nc1nnc(-c2cc(Cl)ccc2Cl)o1)c1nc2ccccc2s1
10.5 µg/mL

Determine its reported IC90: CC(=O)N1CCc2c(sc(NC(=O)c3ccc(C)cc3)c2C(N)=O)C1
8.93 µg/mL

Determine its reported IC90: Cc1cc(NC(=O)CSc2nnc(-c3ccncc3)o2)no1
7.04 µg/mL

Determine its reported IC90: Cc1cc(NC(=O)/C=C/c2ccc([N+](=O)[O-])s2)no1
4.04 µg/mL

Determine its reported IC90: CC(C)(C)c1csc(Nc2nc3c(F)cccc3s2)n1
6.52 µg/mL

Determine its reported IC90: CCOC(=O)c1c(NC(=O)Cc2cccc3ccccc23)sc2c1CC(C)(C)NC2(C)C
2.08 µg/mL

Determine its reported IC90: O=C(Cc1ccc(F)cc1)N(CCCn1ccnc1)c1nc2ccc(F)cc2s1
3.39 µg/mL

Determine its reported IC90: Cc1cc(C)c2sc(NNC(=O)c3nc4ccccc4s3)nc2c1
15.5 µg/mL

Determine its reported IC90: Cc1nc2c(ccc3nc(NC(=O)c4ccc(C(C)(C)C)cc4)sc32)s1
3.24 µg/mL

Determine its reported IC90: Cc1ccc(C2CC(c3c(-c4ccccc4)c4cc(Cl)ccc4[nH]c3=O)=NO2)cc1 (centres undefined)
12.4 µg/mL

Determine its reported IC90: Cc1ccc2c(c1)=C(c1sc(=O)[nH]c1O)C(=O)N=2
22.8 µg/mL

Determine its reported IC90: COc1cccc(C(=O)N(CCCn2ccnc2)c2nc3ccc(C)cc3s2)c1OC
2.63 µg/mL

Determine its reported IC90: Cc1ccc(C)c(-c2nnc(NC(=O)/C=C/c3cccs3)o2)c1
54.5 µg/mL

Determine its reported IC90: CC(=O)c1ccc(C(=O)Nc2nnc(-c3cc(Cl)ccc3Cl)o2)cc1
94.4 µg/mL

Determine its reported IC90: CCCOc1ccc(S(=O)(=O)Nc2ccc3c(c2)CCC(=O)N3CC)cc1
13 µg/mL

---

- System: M. tuberculosis H37Rv growth inhibition
- assay_procedure: Mycobacterium tuberculosis H37Rv growth inhibition, putative kinase inhibitor library, confirmatory dose response (AID 2842);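 note: bacteria incubated one week before Alamar blue readout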
Some compounds, each annotated with its measured IC90.

Below, 2 compounds whose answers are already recorded.
Cc1ccc(C)c(-c2nnc(NC(=O)c3ccc(Br)s3)o2)c1: 6.75 µg/mL
COc1ccc(Nc2c3c4c(cccc4[nH]c2=O)C(=O)c2ccccc2-3)cc1: 12.4 µg/mL

Determine its reported IC90: O=C(OCc1ccco1)c1cc2cc(Br)ccc2oc1=O
16.3 µg/mL

Determine its reported IC90: O=C(Nc1nnc(C2=COCCO2)o1)c1cccc(Cl)c1
3.49 µg/mL

---

- Test system: M. tuberculosis H37Rv growth inhibition
- assay_procedure: Mycobacterium tuberculosis H37Rv growth inhibition, putative kinase inhibitor library, confirmatory dose response (AID 2842);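 note: bacteria incubated one week before Alamar blue readout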
Some compounds, each annotated with its measured IC90.

COc1ccc(-c2nnc3c4cc5c(cc4n(Cc4cccc(OC)c4)cc2-3)OCCO5)cc1: 5.28 µg/mL
Cc1ccc(C(=O)Nc2nnc(-c3cc(C)ccc3C)o2)c(C)c1: 7.29 µg/mL
COc1cccc(-c2nnc(NC(=O)c3ccc(Cl)cc3Cl)o2)c1: 8.25 µg/mL
CCCCC(=O)Nc1nnc(-c2ccc(Cl)s2)o1: 3.23 µg/mL
O=C(Nc1nnc(-c2cc(Cl)ccc2Cl)o1)C1=COCCO1: 25.7 µg/mL
COc1ccc(Cl)c2sc(N(CCCn3ccnc3)C(=O)c3cccs3)nc12: 1.72 µg/mL
O=C(c1cccs1)N(CCCn1ccnc1)c1nc2c(Cl)cccc2s1: 5.18 µg/mL
O=C(Nc1nnc(-c2ccncc2)o1)c1ccc(F)cc1: 3.23 µg/mL
CC(=O)c1ccc(C(=O)Nc2nnc(-c3ccc(Cl)cc3)o2)cc1: 1.8 µg/mL
Cc1cc(C)c2sc(NNC(=O)c3ccc(S(=O)(=O)N4CCCCC4)cc3)nc2c1: 29.4 µg/mL

Determine its reported IC90: Cc1nnsc1C(=O)Nc1ccc([N+](=O)[O-])cc1C(F)(F)F
28.1 µg/mL

Determine its reported IC90: Cc1ccccc1C(=O)Nc1nnc(-c2cccnc2)o1
50.1 µg/mL

---

- Tested on: M. tuberculosis H37Rv growth inhibition
- assay_procedure: Mycobacterium tuberculosis H37Rv growth inhibition, putative kinase inhibitor library, confirmatory dose response (AID 2842);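 note: bacteria incubated one week before Alamar blue readout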
Some molecules, each annotated with its measured IC90.

Below, 2 molecules whose answers are already recorded.
CCCCC(=O)Nc1nnc(-c2cc(Cl)ccc2Cl)o1: 32.4 µg/mL
COc1cccc(C(=O)Nc2nnc(-c3ccc(C)cc3C)o2)c1: 20.8 µg/mL

Determine its reported IC90: NC(=O)c1c(Nc2nc3ccc(F)cc3s2)sc2c1CCCC2
51.3 µg/mL

Determine its reported IC90: Cc1ccc(C)c(-c2nnc(NC(=O)c3ccc([N+](=O)[O-])o3)o2)c1
1.29 µg/mL

Determine its reported IC90: O=C(Nc1nnc(-c2cc(Cl)ccc2Cl)o1)c1ccc(Cl)s1
1.86 µg/mL

Determine its reported IC90: Cc1ccc(C2C(C#N)=C(SCC(=O)Nc3cccc(Cl)c3)NC3=C2C(=O)CCC3)o1 (stereo unspecified)
12.1 µg/mL

---

- Test system: M. tuberculosis H37Rv growth inhibition
- assay_procedure: Mycobacterium tuberculosis H37Rv growth inhibition, putative kinase inhibitor library, confirmatory dose response (AID 2842);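 note: bacteria incubated one week before Alamar blue readout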
observed_property: IC90

Below, 5 compounds whose answers are already recorded.
COc1ccc2nc(Nc3nc(-c4cccs4)cs3)sc2c1: 37.8 µg/mL
CCN(C1CCCCC1)S(=O)(=O)c1ccc(C(=O)Nc2nnc(-c3ccc(F)cc3)o2)cc1: 5.64 µg/mL
CCN1C(=O)c2cccc3c(NC(=O)c4ccc(Cl)s4)ccc1c23: 8.65 µg/mL
O=C(Nc1nnc(-c2ccc(Br)cc2)o1)c1sc2ccccc2c1Cl: 6.7 µg/mL
COc1ccc(-c2cc3ccccc3n2CC(O)CNCCc2ccccc2)cc1 (stereo unspecified): 4.11 µg/mL

Name the recorded IC90 of CCCCOc1ccc(C(=O)Nc2nnc(-c3ccco3)o2)cc1 , assay system M. tuberculosis H37Rv growth inhibition.
0.8 µg/mL

---

Some molecules, each annotated with its measured IC90.
- Tested on: M. tuberculosis H37Rv growth inhibition
- assay_procedure: Mycobacterium tuberculosis H37Rv growth inhibition, putative kinase inhibitor library, confirmatory dose response (AID 2842);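 note: bacteria incubated one week before Alamar blue readout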

Below, 8 molecules whose answers are already recorded.
Cc1ccc2sc(NNC(=O)c3cc4ccccc4oc3=O)nc2c1C: 4.21 mg/L
Cc1ccc(-c2nnc(NC(=O)c3cccc(Oc4ccccc4)c3)o2)c(C)c1: 25.3 mg/L
Cc1cccc(N2CCN(C(=O)CCCCCn3c(=O)[nH]c4ccsc4c3=O)CC2)c1C: 20.9 mg/L
Cc1nc2c(ccc3nc(NC(=O)c4ccco4)sc32)s1: 35 mg/L
O=C1CN(C(=O)c2cccc(F)c2)C(c2ccc(F)cc2)c2cc(Br)ccc2N1 (centres undefined): 32.1 mg/L
Cc1cccc(C(=O)Nc2nnc(-c3cc(Cl)ccc3Cl)o2)c1: 32 mg/L
CC(=O)N1CCc2c(sc(NC(=O)c3ccccc3Oc3ccccc3)c2C(N)=O)C1: 18.3 mg/L
Cc1ccc(Nc2nc(N3CCN(Cc4ccccc4)CC3)nc3nccnc23)cc1: 7.94 mg/L

Determine its reported IC90: CC(=O)N1CCc2c(sc(NC(=O)c3ccc(-c4ccccc4)cc3)c2C(N)=O)C1
20.4 mg/L

Determine its reported IC90: Cc1ccc(C)c(-c2nnc(NC(=O)C(C)(C)C)o2)c1
1.32 mg/L

---

- System: M. tuberculosis H37Rv growth inhibition
- assay_procedure: Mycobacterium tuberculosis H37Rv growth inhibition, putative kinase inhibitor library, confirmatory dose response (AID 2842);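 note: bacteria incubated one week before Alamar blue readout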
observed_property: IC90

Below, 3 compounds whose answers are already recorded.
Cc1cccc(-c2nc(SCC(=O)Nc3ccc4c(c3)OCO4)c(-c3ccccc3)[nH]2)c1: 9.98 µg/mL
O=C(Nc1nnc(-c2cc(Cl)ccc2Cl)o1)c1ccccc1Cl: 1.66 µg/mL
O=C(c1ccc(F)cc1)N1N=C(c2c(-c3ccccc3)c3cc(Br)ccc3[nH]c2=O)CC1c1ccco1 (configuration not stated): 13.1 µg/mL

Determine its reported IC90: CCCCOc1cccc(C(=O)Nc2nnc(-c3cc(Cl)ccc3Cl)o2)c1
12.9 µg/mL

Determine its reported IC90: Cc1ccccc1C1C=C(c2cccs2)Nc2nc3ccccc3n21 (configuration not stated)
13.8 µg/mL

Determine its reported IC90: COc1cccc2sc(Nc3nc4c(s3)CC(C)CC4)nc12 (configuration not stated)
5.79 µg/mL

Determine its reported IC90: O=C(Nc1nnc(-c2ccc3c(c2)CCCC3)o1)c1sc2ccccc2c1Cl
34.5 µg/mL

Determine its reported IC90: CC(=O)N1CCc2c(sc(NC(=O)c3cccc(C)c3)c2C(N)=O)C1
17.1 µg/mL

Determine its reported IC90: O=C(Nc1nnc(-c2ccc3c(c2)CCCC3)o1)C1CCCCC1
40.2 µg/mL

Determine its reported IC90: CC(C)(C)C(=O)Nc1nnc(-c2ccc(Br)cc2)o1
< 0.2 µg/mL

Determine its reported IC90: COC(=O)c1c(NC(=O)c2ccccc2Oc2ccccc2)sc2c1CC(C)(C)NC2(C)C
37.1 µg/mL

Determine its reported IC90: Cc1ccc(C(=O)Nc2nnc(C3=COCCO3)o2)cc1
2.78 µg/mL

Determine its reported IC90: CS(=O)(=O)c1ccc(-c2nnc(NC(=O)c3ccc(Cl)s3)o2)cc1
1.67 µg/mL

Determine its reported IC90: Cc1ccc(C)c(-c2nnc(NC(=O)c3ccccc3[N+](=O)[O-])o2)c1
4.88 µg/mL

Determine its reported IC90: O=C(c1ccco1)N(CCCn1ccnc1)c1nc2ccc(F)cc2s1
1.94 µg/mL

Determine its reported IC90: COc1cccc(NC(=O)c2ccc(COc3cccc(C)c3)o2)c1
11.7 µg/mL

Determine its reported IC90: COc1ccc(N2CC(c3nc4ccccc4n3Cc3ccccc3C)CC2=O)cc1 (configuration not stated)
20.1 µg/mL

Determine its reported IC90: O=C(Nc1nnc(-c2ccc3c(c2)CCCC3)o1)c1ccccc1Br
< 0.2 µg/mL

Determine its reported IC90: CC1CCc2c(sc(Nc3nc4c(F)cccc4s3)c2C(N)=O)C1 (configuration not stated)
8.58 µg/mL

Determine its reported IC90: COc1cccc(-c2nnc(NC(=O)C(C)C)o2)c1
32.7 µg/mL

Determine its reported IC90: Cc1ccc(-n2ccnc(NCC(C)c3ccccc3)c2=O)cc1C (configuration not stated)
18.1 µg/mL

Determine its reported IC90: O=C(NCCSc1c(-c2ccccc2)[nH]c2ccccc12)c1cc2ccccc2oc1=O
2.71 µg/mL
